This collection of values is drawn from patent US12435046B2.

assay system: EGFR wt (Homo sapiens)
Construct: expressed in transfected cells; host or cells: BaF3 (murine pro-B) cells, retroviral transduction with pMXs-IRES-Blasticidin
assay method text: BaF3 cell proliferation assay (CellTiterGlo), EGFR wt
Assay type: cell-based
cond: Table B; BaF3 cells, 3 days
measurement label: IC50

Exercise: // query IC50 value for entry CN1C[C@H]2C[C@@]2(C#Cc2cc3ncnc(Nc4cccc(Cl)c4F)c3cc2NC(=O)/C=C/CN2CCOCC2)C1
Key: 25 to 50 nM

---

Assign pIC50 to each entry below.
assay system: EGFR wt (Homo sapiens, UniProt P00533)
Construct: expressed in transfected cells; host or cells: BaF3 (murine pro-B) cells, retroviral transduction with pMXs-IRES-Blasticidin
Sequence (P00533 25-1210): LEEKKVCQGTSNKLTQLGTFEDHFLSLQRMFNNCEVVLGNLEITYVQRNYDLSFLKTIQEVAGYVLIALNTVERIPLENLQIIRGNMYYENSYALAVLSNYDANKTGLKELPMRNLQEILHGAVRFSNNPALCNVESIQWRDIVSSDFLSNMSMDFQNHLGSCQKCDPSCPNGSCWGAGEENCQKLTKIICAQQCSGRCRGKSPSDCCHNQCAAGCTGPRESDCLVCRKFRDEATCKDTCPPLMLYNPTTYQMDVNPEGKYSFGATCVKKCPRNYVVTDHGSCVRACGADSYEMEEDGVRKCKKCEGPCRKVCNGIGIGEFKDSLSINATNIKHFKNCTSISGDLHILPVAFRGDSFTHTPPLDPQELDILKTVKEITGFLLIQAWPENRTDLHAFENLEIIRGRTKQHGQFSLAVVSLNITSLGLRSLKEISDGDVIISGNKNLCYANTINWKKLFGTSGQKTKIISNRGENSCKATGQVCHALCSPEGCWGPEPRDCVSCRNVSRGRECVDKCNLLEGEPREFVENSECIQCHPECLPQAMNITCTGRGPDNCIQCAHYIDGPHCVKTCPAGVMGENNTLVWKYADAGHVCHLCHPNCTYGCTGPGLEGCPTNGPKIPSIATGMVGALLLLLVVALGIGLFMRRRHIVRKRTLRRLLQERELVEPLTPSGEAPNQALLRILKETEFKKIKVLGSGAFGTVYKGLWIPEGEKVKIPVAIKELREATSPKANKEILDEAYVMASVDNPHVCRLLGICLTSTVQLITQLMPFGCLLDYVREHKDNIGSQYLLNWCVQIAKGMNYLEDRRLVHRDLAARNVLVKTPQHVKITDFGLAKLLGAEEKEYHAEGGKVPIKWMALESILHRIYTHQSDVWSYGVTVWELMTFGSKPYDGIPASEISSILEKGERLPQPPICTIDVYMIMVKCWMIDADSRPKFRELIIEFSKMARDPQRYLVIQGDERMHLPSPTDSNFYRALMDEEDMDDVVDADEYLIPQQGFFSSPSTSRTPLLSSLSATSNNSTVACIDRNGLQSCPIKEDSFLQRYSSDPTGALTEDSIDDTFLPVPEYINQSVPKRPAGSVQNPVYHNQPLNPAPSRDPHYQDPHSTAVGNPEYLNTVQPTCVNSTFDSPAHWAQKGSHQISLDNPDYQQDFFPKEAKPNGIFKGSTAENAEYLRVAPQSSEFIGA
assay method text: BaF3 cell proliferation assay (CellTiterGlo), EGFR wt
Type: cell-based
cond: Table A; BaF3 cells, 3 days
pIC50: −log10 of the molar value.

Look over these answered cases.
CC#CC(=O)Nc1cc2c(Nc3cccc(Cl)c3F)ncnc2cc1C#C[C@@H]1[C@H]2CN(C)C[C@@H]12    6.30 to 7.00
C=CC(=O)Nc1cc2c(Nc3ccc(Oc4ccn5ncnc5c4)c(C)c3)ncnc2cc1C#CC12CC1CN(C)C2 (stereo not shown)    < 6.30
C=CC(=O)Nc1cc2c(Nc3cccc(Cl)c3F)ncnc2cc1C#CC1(C)CN(C)CCO1 (stereo not shown)    < 6.30

Now turn to the next compound.
Exercise: For the compound shown here, C=CC(=O)Nc1cc2c(Nc3cccc(Cl)c3F)ncnc2cc1C#C[C@]1(OC)CCN(C)C1 , give the reported pIC50.
Key: ≥ 7.30

---

assay system: HER2 YVMA (Homo sapiens, UniProt P04626, INS775YVMA)
Sequence (P04626 with tags, fused parts or gaps INS775YVMA): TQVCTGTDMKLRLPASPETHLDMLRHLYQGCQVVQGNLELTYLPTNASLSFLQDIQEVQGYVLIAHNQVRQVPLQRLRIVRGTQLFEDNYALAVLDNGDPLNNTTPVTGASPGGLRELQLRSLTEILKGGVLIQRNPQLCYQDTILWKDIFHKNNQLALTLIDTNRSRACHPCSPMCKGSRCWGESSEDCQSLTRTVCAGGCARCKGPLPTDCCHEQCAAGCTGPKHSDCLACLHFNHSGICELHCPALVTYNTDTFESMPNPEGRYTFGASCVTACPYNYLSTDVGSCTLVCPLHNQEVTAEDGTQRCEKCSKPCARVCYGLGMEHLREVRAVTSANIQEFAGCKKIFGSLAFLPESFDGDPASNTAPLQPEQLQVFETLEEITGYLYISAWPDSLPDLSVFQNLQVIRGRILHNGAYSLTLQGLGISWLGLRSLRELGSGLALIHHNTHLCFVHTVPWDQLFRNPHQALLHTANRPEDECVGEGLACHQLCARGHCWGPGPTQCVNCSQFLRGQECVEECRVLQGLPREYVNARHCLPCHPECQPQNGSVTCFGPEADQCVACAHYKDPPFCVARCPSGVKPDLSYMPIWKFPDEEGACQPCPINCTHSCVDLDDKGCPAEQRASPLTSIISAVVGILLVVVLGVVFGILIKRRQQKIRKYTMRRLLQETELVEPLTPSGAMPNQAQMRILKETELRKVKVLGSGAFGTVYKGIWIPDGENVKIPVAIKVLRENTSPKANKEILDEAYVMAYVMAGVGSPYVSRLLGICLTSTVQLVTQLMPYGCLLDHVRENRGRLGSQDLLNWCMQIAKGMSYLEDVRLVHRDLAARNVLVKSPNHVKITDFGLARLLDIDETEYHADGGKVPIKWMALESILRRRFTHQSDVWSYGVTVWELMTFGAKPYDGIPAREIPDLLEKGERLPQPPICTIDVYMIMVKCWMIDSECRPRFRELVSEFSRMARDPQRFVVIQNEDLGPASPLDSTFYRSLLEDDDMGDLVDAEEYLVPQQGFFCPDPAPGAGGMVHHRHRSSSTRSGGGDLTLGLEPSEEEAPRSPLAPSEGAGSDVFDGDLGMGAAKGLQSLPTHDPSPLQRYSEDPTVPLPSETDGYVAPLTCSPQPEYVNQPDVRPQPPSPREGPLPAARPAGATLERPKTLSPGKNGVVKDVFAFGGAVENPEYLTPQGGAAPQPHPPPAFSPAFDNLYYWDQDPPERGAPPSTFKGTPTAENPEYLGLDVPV
assay method text: BaF3 cell proliferation assay (CellTiterGlo), HER2 YVMA
cond: Table A; BaF3 cells, 3 days
measurement label: IC50

CN1CC[C@](C)(C#Cc2cc3ncnc(Nc4cccc(Cl)c4F)c3cc2NC(=O)/C=C/CN2CCOCC2)C1    > 500 nM

The following compounds each have a reported value; give each one's IC50.
1. C=CC(=O)Nc1cc2c(Nc3cccc(Cl)c3F)ncnc2cc1C#C[C@]1(C)CCCN(C)C1
2. C=CC(=O)Nc1cc2c(Nc3cccc(Cl)c3F)ncnc2cc1C#CC1(C)CN(C)C1
3. CN(C)C/C=C/C(=O)Nc1cc2c(Nc3cccc(Cl)c3F)ncnc2cc1C#CC1(C)CCOC1 (stereo not shown)
4. C=CC(=O)Nc1cc2c(Nc3cccc(Cl)c3F)ncnc2cc1C#C[C@]12C[C@H]1CN(C1COC1)C2
5. C=CC(=O)Nc1cc2c(Nc3cccc(Cl)c3F)ncnc2cc1C#C[C@@]1(C)CCCN(C)C1

Key:
["> 500 nM", "100 to 500 nM", "≤ 50 nM", "> 500 nM", "> 500 nM"]

Exercise: Any idea what its IC50 is? The compound is C=CC(=O)Nc1cc2c(Nc3cccc(Cl)c3F)ncnc2cc1C#CC1CCN(C)C1 (stereo not shown)
Key: 100 to 500 nM

---

assay system: EGFR wt (Homo sapiens)
Construct: expressed in transfected cells; host or cells: BaF3 (murine pro-B) cells, retroviral transduction with pMXs-IRES-Blasticidin
assay method text: BaF3 cell proliferation assay (CellTiterGlo), EGFR wt
Type: cell-based
cond: Table A; BaF3 cells, 3 days
pIC50: −log10 of the molar value.
Provide the recorded pIC50 for the entries that follow.

C=CC(=O)Nc1cc2c(Nc3cccc(Cl)c3F)ncnc2cc1C#CC1(C)CCCN(C)C1 (centres unmarked)    < 6.30
C=CC(=O)Nc1cc2c(Nc3ccc(OCc4ccccn4)c(Cl)c3)ncnc2cc1C#C[C@]1(C)CCN(C)C1    6.30 to 7.00
C=C(CO)C(=O)Nc1cc2c(Nc3cccc(Cl)c3F)ncnc2cc1C#C[C@@]1(C)CCN(C)C1    ≥ 7.30
C=CC(=O)Nc1cc2c(Nc3cc(Cl)ccc3F)ncnc2cc1C#C[C@@H]1[C@H]2CN(C)C[C@@H]12    6.30 to 7.00
C=CC(=O)Nc1cc2c(Nc3cccc(Cl)c3F)ncnc2cc1C#CC12CCN(CC1)CC2    ≥ 7.30
C=CC(=O)Nc1cc2c(Nc3cccc(Cl)c3F)ncnc2cc1C#CC1(C)COC1    7.00 to 7.30
C=CC(=O)Nc1cc2c(Nc3cccc(Cl)c3F)ncnc2cc1C#CC12CCC(CC1)N2C    6.30 to 7.00

Exercise: Test system EGFR wt (Homo sapiens); read-out pIC50; what value for C=CC(=O)Nc1cc2c(Nc3cccc(Cl)c3F)ncnc2cc1C#CC1CCN(C)C1 (centres unmarked) ?
Key: ≥ 7.30

---

assay system: HER2 S310F (Homo sapiens, UniProt P04626, S310F)
Sequence (P04626 23-1255 S310F): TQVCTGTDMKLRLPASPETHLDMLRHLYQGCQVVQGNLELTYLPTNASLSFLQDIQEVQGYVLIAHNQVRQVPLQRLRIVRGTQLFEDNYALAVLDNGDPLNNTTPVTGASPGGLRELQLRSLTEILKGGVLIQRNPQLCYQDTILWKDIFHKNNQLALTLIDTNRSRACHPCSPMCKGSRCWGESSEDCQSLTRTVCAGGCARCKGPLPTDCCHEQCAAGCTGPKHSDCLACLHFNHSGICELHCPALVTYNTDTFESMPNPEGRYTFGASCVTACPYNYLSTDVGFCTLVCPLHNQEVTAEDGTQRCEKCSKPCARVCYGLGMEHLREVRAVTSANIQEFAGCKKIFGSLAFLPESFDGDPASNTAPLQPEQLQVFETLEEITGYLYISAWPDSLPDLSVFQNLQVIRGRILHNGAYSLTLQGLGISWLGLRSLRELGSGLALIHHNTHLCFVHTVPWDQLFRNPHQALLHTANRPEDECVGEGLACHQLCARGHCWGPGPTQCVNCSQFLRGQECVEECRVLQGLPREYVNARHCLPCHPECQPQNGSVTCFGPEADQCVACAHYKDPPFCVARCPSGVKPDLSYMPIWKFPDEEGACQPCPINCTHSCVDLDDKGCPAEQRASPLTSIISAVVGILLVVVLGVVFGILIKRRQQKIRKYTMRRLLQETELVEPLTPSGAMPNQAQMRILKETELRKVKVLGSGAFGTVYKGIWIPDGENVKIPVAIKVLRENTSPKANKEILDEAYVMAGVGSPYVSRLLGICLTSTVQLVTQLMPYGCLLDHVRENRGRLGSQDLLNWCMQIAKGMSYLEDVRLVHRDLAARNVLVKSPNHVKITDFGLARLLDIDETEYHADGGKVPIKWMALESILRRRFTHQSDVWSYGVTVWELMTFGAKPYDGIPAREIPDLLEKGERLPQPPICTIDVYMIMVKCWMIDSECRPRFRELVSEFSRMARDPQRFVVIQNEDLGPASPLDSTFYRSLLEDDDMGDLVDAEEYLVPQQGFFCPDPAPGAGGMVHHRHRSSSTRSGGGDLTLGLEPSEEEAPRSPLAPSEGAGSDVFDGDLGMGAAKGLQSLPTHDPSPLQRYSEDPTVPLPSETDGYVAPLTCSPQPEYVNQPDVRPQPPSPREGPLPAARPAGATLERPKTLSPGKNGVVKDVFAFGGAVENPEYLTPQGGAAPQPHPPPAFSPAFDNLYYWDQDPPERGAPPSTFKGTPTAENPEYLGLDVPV
assay method text: BaF3 cell proliferation assay (CellTiterGlo), HER2 S310F
cond: Table A; BaF3 cells, 3 days
pIC50: −log10 of the molar value.
measurement label: pIC50

// known answers, use as guide
CN1C[C@H]2C[C@@]2(C#Cc2cc3ncnc(Nc4cccc(Cl)c4F)c3cc2NC(=O)/C=C/CN2CCOCC2)C1 [Compound 37]    6.30 to 7.00
CC#CC(=O)Nc1cc2c(Nc3ccc(OCc4ccccn4)c(Cl)c3)ncnc2cc1C#CC1(C)CCN(C)C1 (stereo not shown) [Compound 70]    ≥ 7.30
C=CC(=O)Nc1cc2c(Nc3cccc(Cl)c3F)ncnc2cc1C#CC12CC1CN(C)C2 (stereo not shown) [Compound 65]    7.00 to 7.30
C=CC(=O)Nc1cc2c(Nc3cccc(Cl)c3F)ncnc2cc1C#C[C@]1(C)CCN(C2COC2)C1 [Compound 58]    7.00 to 7.30
C=CC(=O)Nc1cc2c(Nc3cc(Cl)ccc3F)ncnc2cc1C#C[C@@H]1[C@H]2CN(C)C[C@@H]12 [Compound 75]    6.30 to 7.00
C=CC(=O)Nc1cc2c(Nc3cccc(Cl)c3F)ncnc2cc1C#C[C@@]12C[C@@H]1CN(C)C2 [Compound 51]    ≥ 7.30

Now take the following compound into account.
Exercise: Form field - read-out: pIC50; system: HER2 S310F (Homo sapiens, UniProt P04626, S310F); submitted item: CN1C[C@H]2C[C@@]2(C#Cc2cc3ncnc(Nc4cccc(Cl)c4F)c3cc2NC(=O)C(F)Cl)C1 (stereo partly shown) [Compound 23]
Key: 6.30 to 7.00

---

assay system: HER2 S310F (Homo sapiens, UniProt P04626, S310F)
assay method text: BaF3 cell proliferation assay (CellTiterGlo), HER2 S310F
cond: Table A; BaF3 cells, 3 days
measurement label: IC50

C=CC(=O)Nc1cc2c(Nc3cccc(Cl)c3F)ncnc2cc1C#CC12CCC(CC1)N2C    0.1 to 0.5 µM

For each of the items listed, what is its IC50?
1. C=C(CO)C(=O)Nc1cc2c(Nc3cccc(Cl)c3F)ncnc2cc1C#C[C@@]12C[C@@H]1CN(C)C2
2. C=CC(=O)Nc1cc2c(Nc3cccc(Cl)c3F)ncnc2cc1C#C[C@@]1(C)CCCN1C
3. C=CC(=O)Nc1cc2c(Nc3ccc(OCc4ccccn4)c(Cl)c3)ncnc2cc1C#CC1(C)CCN(C)C1 (stereo not shown)
4. C=CC(=O)Nc1cc2c(Nc3cccc(Cl)c3F)ncnc2cc1C#CC1(F)CCN(C)C1 (stereo not shown)
5. C=CC(=O)Nc1cc2c(Nc3cccc(Cl)c3F)ncnc2cc1C#C[C@]1(C)CCCN(C)C1

Key:
1. 0.05 to 0.1 µM
2. 0.1 to 0.5 µM
3. ≤ 0.05 µM
4. 0.05 to 0.1 µM
5. 0.1 to 0.5 µM

Exercise: Recorded IC50 for CN(C)C/C=C/C(=O)Nc1cc2c(Nc3cccc(Cl)c3F)ncnc2cc1C#C[C@@]1(C)CCN(C)C1 , please?
Key: 0.1 to 0.5 µM

---

assay system: EGFR V3 (Homo sapiens, UniProt P00533, DELINS30-297G)
Construct: expressed in transfected cells; host or cells: BaF3 (murine pro-B) cells, retroviral transduction with pMXs-IRES-Blasticidin
Sequence (P00533 with tags, fused parts or gaps DELINS30-297G): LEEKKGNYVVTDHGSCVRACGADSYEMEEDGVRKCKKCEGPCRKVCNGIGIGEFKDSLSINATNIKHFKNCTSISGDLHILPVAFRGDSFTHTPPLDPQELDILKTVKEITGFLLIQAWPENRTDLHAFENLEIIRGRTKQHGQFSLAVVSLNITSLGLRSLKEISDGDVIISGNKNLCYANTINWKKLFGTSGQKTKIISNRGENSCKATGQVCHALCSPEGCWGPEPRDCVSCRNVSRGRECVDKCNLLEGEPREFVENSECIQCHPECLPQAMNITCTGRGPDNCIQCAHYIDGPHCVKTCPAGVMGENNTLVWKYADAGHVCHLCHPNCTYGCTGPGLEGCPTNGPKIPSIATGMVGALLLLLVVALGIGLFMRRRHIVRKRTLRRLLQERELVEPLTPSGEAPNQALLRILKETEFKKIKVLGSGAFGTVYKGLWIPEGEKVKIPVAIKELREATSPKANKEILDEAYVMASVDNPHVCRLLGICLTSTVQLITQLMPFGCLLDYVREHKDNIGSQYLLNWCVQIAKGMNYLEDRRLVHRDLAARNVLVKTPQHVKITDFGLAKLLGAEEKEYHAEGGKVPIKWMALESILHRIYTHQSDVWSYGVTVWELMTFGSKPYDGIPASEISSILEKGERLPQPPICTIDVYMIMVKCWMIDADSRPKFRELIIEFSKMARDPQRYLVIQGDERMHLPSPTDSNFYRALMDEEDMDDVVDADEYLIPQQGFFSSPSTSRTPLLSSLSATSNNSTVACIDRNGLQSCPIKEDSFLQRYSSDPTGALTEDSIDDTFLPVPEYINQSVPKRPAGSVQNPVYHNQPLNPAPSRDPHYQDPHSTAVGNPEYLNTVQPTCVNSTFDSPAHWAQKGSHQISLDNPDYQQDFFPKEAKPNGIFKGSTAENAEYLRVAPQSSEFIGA
assay method text: BaF3 cell proliferation assay (CellTiterGlo), EGFR V3
Type: cell-based
cond: Table A; BaF3 cells, 3 days
measurement label: IC50

C=CC(=O)Nc1cc2c(Nc3cccc(Cl)c3F)ncnc2cc1C#CC1(C)CN(C)CC1(F)F (stereo not drawn)    100 to 500 nM
C=CC(=O)Nc1cc2c(Nc3cccc(Cl)c3F)ncnc2cc1C#C[C@]1(F)CCN(C)C1    ≤ 50 nM
C=CC(=O)Nc1cc2c(Nc3cccc(Cl)c3F)ncnc2cc1C#CC1(C)CCN(C)CC1    ≤ 50 nM
C=CC(=O)Nc1cc2c(Nc3cccc(Cl)c3F)ncnc2cc1C#CC1(OC)CCN(C)C1 (stereo not drawn)    ≤ 50 nM
C=CC(=O)Nc1cc2c(Nc3cccc(Cl)c3F)ncnc2cc1C#CC1(C)CN(C)C1    ≤ 50 nM
C=CC(=O)Nc1cc2c(Nc3ccc(OCc4ccccn4)c(Cl)c3)ncnc2cc1C#C[C@H]1[C@H]2CN(C)C[C@@H]12    > 500 nM
C=CC(=O)Nc1cc2c(Nc3ccc(OCc4ccccn4)c(Cl)c3)ncnc2cc1C#CC1(C)CCCN(C)C1 (stereo not drawn)    50 to 100 nM
C=CC(=O)Nc1cc2c(Nc3cccc(Cl)c3F)ncnc2cc1C#CC1(C(F)(F)F)CCN(C)C1 (stereo not drawn)    100 to 500 nM
CNC(=O)Nc1cc2c(Nc3cccc(Cl)c3F)ncnc2cc1C#CC1(C)CCN(C)C1 (stereo not drawn)    > 500 nM
C=CC(=O)Nc1cc2c(Nc3ccc(Cl)c(Cl)c3F)ncnc2cc1C#CC1(C)CCOC1 (stereo not drawn)    ≤ 50 nM

I'm hoping you can list IC50 for every compound here, please.
1. C=CC(=O)Nc1cc2c(Nc3ccc(OCc4ccccn4)c(Cl)c3)ncnc2cc1C#C[C@@]1(C)CCCN1C
2. C=CC(=O)Nc1cc2c(Nc3cccc(Cl)c3F)ncnc2cc1C#C[C@]12C[C@H]1CN(C(C)C)C2
3. C=CC(=O)Nc1cc2c(Nc3cccc(Cl)c3F)ncnc2cc1C#C[C@@H]1[C@H]2CN(C)C[C@@H]12
4. C=CC(=O)Nc1cc2c(Nc3ccc(OCc4ccccn4)c(Cl)c3)ncnc2cc1C#CC1(C)CCN(C)C1 (stereo not drawn)

Key:
50 to 100 nM
≤ 50 nM
≤ 50 nM
≤ 50 nM

Exercise: Form field: reported IC50 of C=CC(=O)Nc1cc2c(Nc3cccc(Cl)c3F)ncnc2cc1C#C[C@]12C[C@H]1CN(C1COC1)C2
Key: 100 to 500 nM
